Where do the numbers come from? From patent EP4786492A1.

# ASSAY_TARGET: monkey DLL3 on CHO-K1-cyno DLL3 cells (cynomolgus monkey)
# Sequence (chain, as listed by the source limits assumed): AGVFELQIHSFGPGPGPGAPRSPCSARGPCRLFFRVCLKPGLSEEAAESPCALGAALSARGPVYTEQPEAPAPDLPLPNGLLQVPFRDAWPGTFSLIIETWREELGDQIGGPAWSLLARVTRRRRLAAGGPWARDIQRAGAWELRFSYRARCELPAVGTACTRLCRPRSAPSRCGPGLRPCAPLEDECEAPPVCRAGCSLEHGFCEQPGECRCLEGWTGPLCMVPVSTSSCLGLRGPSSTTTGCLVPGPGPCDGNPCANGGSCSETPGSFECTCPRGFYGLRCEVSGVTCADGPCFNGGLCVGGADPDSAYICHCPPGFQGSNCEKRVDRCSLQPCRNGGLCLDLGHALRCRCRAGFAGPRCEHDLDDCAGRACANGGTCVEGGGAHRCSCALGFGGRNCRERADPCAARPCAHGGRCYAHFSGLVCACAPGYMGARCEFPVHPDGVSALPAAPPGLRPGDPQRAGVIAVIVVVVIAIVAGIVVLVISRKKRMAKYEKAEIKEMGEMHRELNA
# PROTOCOL_SUMMARY: FACS, CHO-K1-cyno DLL3 cells, 4 nM antibody
Please use true whenever MFI is not below 10000 MFI, and false whenever it is.

q: Kindly determine if MFI recorded for Hab008L3H2a-hFc (scFv, part only; not given: VL-VH linker and human IgG1 Fc, V domains shown, not shown: another chain or arm of the molecule; a dimerising Fc or GST; small tags and cut ends) VL: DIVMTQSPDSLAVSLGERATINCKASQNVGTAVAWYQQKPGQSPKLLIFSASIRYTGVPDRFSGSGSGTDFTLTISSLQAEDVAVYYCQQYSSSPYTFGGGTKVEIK VH: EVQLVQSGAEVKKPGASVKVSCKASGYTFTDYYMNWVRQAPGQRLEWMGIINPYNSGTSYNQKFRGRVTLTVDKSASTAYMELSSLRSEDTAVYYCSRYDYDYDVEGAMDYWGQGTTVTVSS is above or exactly 10000 MFI.
a: true

q: Determine whether this binder has MFI no lower than 10000 MFI: Hab015VL4VH6a-hFc (scFv, part only; not given: scFv linker and human IgG1 Fc, V domains shown, not shown: another chain or arm of the molecule; a dimerising Fc or GST; small tags and cut ends) VL: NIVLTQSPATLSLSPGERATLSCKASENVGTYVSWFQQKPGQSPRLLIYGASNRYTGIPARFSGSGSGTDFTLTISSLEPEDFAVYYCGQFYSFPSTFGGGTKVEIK VH: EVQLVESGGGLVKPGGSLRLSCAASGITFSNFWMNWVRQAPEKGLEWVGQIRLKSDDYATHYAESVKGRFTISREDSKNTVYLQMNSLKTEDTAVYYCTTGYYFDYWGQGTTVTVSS
a: false

q: Could you verify whether the entry Hab015VL5VH1a-hFc (scFv, part only; not given: scFv linker and human IgG1 Fc, V domains shown, not shown: another chain or arm of the molecule; a dimerising Fc or GST; small tags and cut ends) VL: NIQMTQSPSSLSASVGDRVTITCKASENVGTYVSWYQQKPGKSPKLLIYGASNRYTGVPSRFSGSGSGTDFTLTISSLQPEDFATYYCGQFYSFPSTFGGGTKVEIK VH: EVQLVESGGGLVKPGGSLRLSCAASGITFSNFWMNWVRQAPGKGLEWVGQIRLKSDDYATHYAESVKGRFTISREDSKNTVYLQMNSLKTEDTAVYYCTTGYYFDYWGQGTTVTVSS shows MFI of no less than 10000 MFI?
a: false

q: Could you tell me if the measured MFI of Hab009VL2aVH1-hFc (scFv, part only; not given: VL-VH linker and human IgG1 Fc, V domains shown, not shown: another chain or arm of the molecule; a dimerising Fc or GST; small tags and cut ends) VL: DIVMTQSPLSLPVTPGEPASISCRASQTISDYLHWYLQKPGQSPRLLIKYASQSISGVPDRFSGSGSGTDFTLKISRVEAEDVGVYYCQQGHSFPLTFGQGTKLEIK VH: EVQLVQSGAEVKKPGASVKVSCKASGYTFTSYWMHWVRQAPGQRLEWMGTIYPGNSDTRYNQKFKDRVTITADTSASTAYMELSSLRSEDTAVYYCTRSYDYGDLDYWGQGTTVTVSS reaches 10000 MFI or more?
a: true

q: Entry Hab008L1H2a-hFc (scFv, part only; not given: VL-VH linker and human IgG1 Fc, V domains shown, not shown: another chain or arm of the molecule; a dimerising Fc or GST; small tags and cut ends) VL: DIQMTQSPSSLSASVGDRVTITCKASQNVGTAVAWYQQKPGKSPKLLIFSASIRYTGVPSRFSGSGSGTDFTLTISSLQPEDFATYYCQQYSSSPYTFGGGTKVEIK VH: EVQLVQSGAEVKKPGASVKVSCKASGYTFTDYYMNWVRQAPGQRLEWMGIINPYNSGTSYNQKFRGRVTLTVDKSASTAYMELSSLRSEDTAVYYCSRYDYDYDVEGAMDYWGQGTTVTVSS : is its MFI no less than 10000 MFI?
a: true
